Kindly state pIC50 for each of the entries shown.
Target chain: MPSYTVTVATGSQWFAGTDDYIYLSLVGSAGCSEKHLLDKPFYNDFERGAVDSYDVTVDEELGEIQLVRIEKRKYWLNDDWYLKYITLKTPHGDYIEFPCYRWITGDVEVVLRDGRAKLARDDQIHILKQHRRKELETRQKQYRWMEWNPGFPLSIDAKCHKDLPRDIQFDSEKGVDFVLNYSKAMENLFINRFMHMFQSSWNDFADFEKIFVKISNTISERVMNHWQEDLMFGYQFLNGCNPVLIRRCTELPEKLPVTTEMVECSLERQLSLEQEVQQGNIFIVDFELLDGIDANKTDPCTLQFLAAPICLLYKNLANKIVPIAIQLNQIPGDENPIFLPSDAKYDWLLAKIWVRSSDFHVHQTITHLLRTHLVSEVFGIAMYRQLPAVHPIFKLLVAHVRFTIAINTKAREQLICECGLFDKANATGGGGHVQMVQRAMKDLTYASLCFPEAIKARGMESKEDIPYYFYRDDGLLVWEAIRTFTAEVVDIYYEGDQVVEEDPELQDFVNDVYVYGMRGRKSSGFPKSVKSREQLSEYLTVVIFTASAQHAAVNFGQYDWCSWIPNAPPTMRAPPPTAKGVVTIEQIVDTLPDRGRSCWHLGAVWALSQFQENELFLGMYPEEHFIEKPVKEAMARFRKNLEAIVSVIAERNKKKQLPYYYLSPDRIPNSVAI
pIC50: −log10 of the molar value.

Examples from the recorded data:
{"Compound": "O=C(O)c1ccc2nc(N3CCC(Nc4nc5ccccc5n4Cc4ccc(F)cc4)CC3)n(O)c(=O)c2c1 [Entry 10]", "Reported value": "< 5.00"}
{"Compound": "O=C(O)c1ccc2nc(CN3CCC(Nc4nc5ccccc5n4Cc4ccc(F)cc4)CC3)n(O)c(=O)c2c1 [Entry 9]", "Reported value": "< 5.00"}
{"Compound": "O=c1c2ccccc2nc(N2CCC(Nc3nc4ccccc4n3Cc3ccc(F)cc3)CC2)n1O [Entry 12]", "Reported value": "> 5.00"}

Switching to the query record.
Lab note: O=C(O)c1ccc2nc(NC3CCN(c4nc5ccccc5n4Cc4ccc(F)cc4)CC3)n(O)c(=O)c2c1 [Entry 11] gave pIC50 of < 5.00
